# test-summary: qHTS of pediatric cancer cell lines to identify multiple opportunities for drug repurposing: Primary screen for NB-EBc1 cells (AID 1347095)
# condition-info: NB-EBc1 neuroblastoma viability, CellTiter-Glo luminescence, 48 h; series mostly up to 46 µM
# Method: Drug repurposing or repositioning has been offered as a strategy for drug development in oncology programs. This approach has special potential for childhood cancers and other rare or orphan diseases, where the expected return on new drug development has been a disincentive to pharmaceuticals. […] We employed a titration-based paradigm (quantitative high-throughput screening or qHTS), where all compounds were tested at multiple concentrations for their effect on cell viability. […]
Records with an inconclusive call do not appear. Active and inactive are the calls of the source. Calls come from the whole dose curve; as a rule, active = well fitted cell-killing curve with a large enough effect; inconclusive = small, poorly fitted or top-dose-only effect; inactive = no such curve, though single readings can be large or run the other way.
Respond with a class label; see yes (1) (active), no (0) (inactive)

Inquiry: I would be grateful if you could indicate the recorded call for CCOC(=O)c1c(C)n(C)c2ccc(O)cc12 .
Reply text: no (0)

New cases:
Inquiry: I would be grateful if you could indicate the recorded call for Cc1cc(C2CCCCC2)n(O)c(=O)c1 .
Reply text: yes (1)

Inquiry: I would be grateful if you could indicate the recorded call for O=C(O)c1cc(=O)c2c(OCC(O)COc3cccc4oc(C(=O)O)cc(=O)c34)cccc2o1 .
Reply text: no (0)

Inquiry: I would be grateful if you could indicate the recorded call for Cc1nc(Nc2ncc(C(=O)Nc3c(C)cccc3Cl)s2)cc(N2CCN(CCO)CC2)n1 .
Reply text: no (0)

Inquiry: I would be grateful if you could indicate the recorded call for Nc1ccc(S(N)(=O)=O)cc1 .
Reply text: no (0)
